- Tested System: UniProtKB P01116
- Sequence (P01116 whole entry): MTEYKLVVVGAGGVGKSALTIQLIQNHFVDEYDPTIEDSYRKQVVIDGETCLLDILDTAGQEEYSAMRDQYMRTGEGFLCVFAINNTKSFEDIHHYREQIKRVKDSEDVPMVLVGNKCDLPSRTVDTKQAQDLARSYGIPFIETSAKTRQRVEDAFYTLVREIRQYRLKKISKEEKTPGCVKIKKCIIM
- Assay Text: Binding to KRAS by surface plasmon resonance (SPR), Single Cycle Kinetics
- Condition Context: SPR, Single Cycle Kinetics, 1:1 binding model; GDP-bound KRAS wild-type protein; read-out: KRAS KD

>  <Substance Smiles>
CC[C@H](C)[C@@H]1NC(=O)[C@H](CC(C)C)N(C)C(=O)C[C@@H](C(=O)N(C)C)N(C)C(=O)[C@H](C2CCCC2)N(C)C(=O)C2(CC(C)(C)C2)NC(=O)[C@@H]2C[C@@H](F)CN2C(=O)[C@H](CCc2cc(F)c(C(F)(F)F)c(F)c2)NC(=O)CN(C)C(=O)[C@H](Cc2ccc(C(F)(F)F)cc2)N2CC/C=C\C[C@@H](C2=O)N(C)C(=O)CN(C)C1=O

>  <Tested System>
UniProtKB P01116

>  <Kd (nM)>
0.026

$$$$
>  <Substance Smiles>
CCO[C@@H]1C[C@H]2C(=O)NC3(CCC3)C(=O)N(C)[C@@H](C(CC)CC)C(=O)N(C)[C@H](C)CC(=O)N(C)[C@@H](CC3CC3)C(=O)N[C@@H]([C@@H](C)CC)C(=O)N(C)CC(=O)N(C)[C@H]3C/C=C\CCN(C3=O)[C@@H](Cc3ccc(F)cc3)C(=O)N(C)CC(=O)N[C@@H](CCc3cc(F)c(C(F)(F)F)c(F)c3)C(=O)N2C1

>  <Tested System>
UniProtKB P01116

>  <Kd (nM)>
2.6

$$$$
